Target: human plasma kallikrein (Homo sapiens (Human))
Conditions: human plasma kallikrein 25 pM, substrate 0.5 uM, 1 hour pre-incubation at room temperature, read at t=60 min
pIC50: −log10 of the molar value.
endpoint: pIC50

| smiles code | endpoint | observed value |
| --- | --- | --- |
| Cc1noc(-c2ccc(Cn3cc(C(=O)NCc4c(C)cc(N)nc4C)cn3)cc2)n1 | pIC50 | 6.88 |
| Cc1cc(N)nc(C)c1CNC(=O)c1cn(Cc2ccc(Oc3ccccc3)cc2)cn1 | pIC50 | 8.05 |
| Cc1cc(N)nc(C)c1CNC(=O)c1ccn(S(=O)(=O)c2cccc(-c3ncccn3)c2)c1 | pIC50 | 7.15 |
| Cc1cc(N)nc(C)c1CNC(=O)c1cnn(Cc2ccc(Cn3cccn3)cc2)c1 | pIC50 | 9.70 |

---

Molecular target: human plasma kallikrein (Homo sapiens (Human), UniProt P03952)
Sequence (P03952 whole entry, looked up): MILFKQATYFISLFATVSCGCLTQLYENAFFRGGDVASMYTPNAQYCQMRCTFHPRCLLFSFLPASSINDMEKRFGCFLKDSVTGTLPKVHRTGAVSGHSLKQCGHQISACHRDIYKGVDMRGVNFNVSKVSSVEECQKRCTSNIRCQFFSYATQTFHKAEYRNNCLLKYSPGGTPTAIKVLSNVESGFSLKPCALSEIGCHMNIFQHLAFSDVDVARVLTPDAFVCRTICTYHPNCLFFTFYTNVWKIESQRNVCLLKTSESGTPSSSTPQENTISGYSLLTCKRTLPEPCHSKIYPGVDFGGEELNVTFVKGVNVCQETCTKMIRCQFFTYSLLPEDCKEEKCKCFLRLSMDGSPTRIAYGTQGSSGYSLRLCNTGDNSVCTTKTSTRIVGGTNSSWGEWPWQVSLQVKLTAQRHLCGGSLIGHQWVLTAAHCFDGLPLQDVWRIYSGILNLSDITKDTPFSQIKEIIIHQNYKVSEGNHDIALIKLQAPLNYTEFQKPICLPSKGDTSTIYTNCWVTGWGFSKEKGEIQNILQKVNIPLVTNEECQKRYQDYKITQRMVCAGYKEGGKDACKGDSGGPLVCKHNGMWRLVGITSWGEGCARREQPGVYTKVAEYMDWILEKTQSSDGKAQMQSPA
Sequence (P03952 whole entry partner, looked up): as the sequence (P03952 whole entry, looked up) above
Conditions: human plasma kallikrein 25 pM, substrate 0.5 uM, 1 hour pre-incubation at room temperature, read at t=60 min
pIC50: −log10 of the molar value.
pIC50 below 7 gives condition not met; pIC50 at or above it gives condition met.

| smiles code | target under test | label |
| --- | --- | --- |
| COc1cc(N)nc(C)c1CNC(=O)c1cnn(Cc2ccccc2)c1 | human plasma kallikrein (Homo sapiens (Human), UniProt P03952) | condition not met |
| Cc1cc(N)nc(C)c1CNC(=O)c1cn(Cc2ccccc2)nn1 | human plasma kallikrein (Homo sapiens (Human), UniProt P03952) | condition not met |
| Cc1cc(N)nc(C)c1CNC(=O)c1cnn(Cc2ccc3c(c2)N(C)CCC3)c1 | human plasma kallikrein (Homo sapiens (Human), UniProt P03952) | condition met |
| COc1ccc(S(=O)(=O)n2ccc(C(=O)NCc3c(C)cc(N)nc3C)c2)cc1 | human plasma kallikrein (Homo sapiens (Human), UniProt P03952) | condition not met |
| Cc1nc(Cn2cc(C(=O)NCc3c(C)cc(N)nc3C)cn2)cs1 | human plasma kallikrein (Homo sapiens (Human), UniProt P03952) | condition not met |
| Cc1cc(N)nc(C)c1CNC(=O)c1ncc(Cc2ccccc2)o1 | human plasma kallikrein (Homo sapiens (Human), UniProt P03952) | condition not met |
| Cc1cc(N)nc(C)c1CNC(=O)c1cnn(Cc2ccc(Cn3ccccc3=O)cc2)c1 | human plasma kallikrein (Homo sapiens (Human), UniProt P03952) | condition met |
| Cc1cc(N)nc(C)c1CNC(=O)c1coc(Oc2ccccc2)n1 | human plasma kallikrein (Homo sapiens (Human), UniProt P03952) | condition not met |
| Cc1cc(C)n(Cc2ccc(Cn3cc(C(=O)NCc4c(C)cc(N)nc4C)nn3)cc2)n1 | human plasma kallikrein (Homo sapiens (Human), UniProt P03952) | condition met |
| Cc1cc(N)nc(C)c1CNC(=O)c1cn(Cc2ccccc2)cn1 | human plasma kallikrein (Homo sapiens (Human), UniProt P03952) | condition not met |
| Cc1cc(N)nc(C)c1CNC(=O)c1cnn(Cc2ccc(OCC(=O)O)cc2)c1 | human plasma kallikrein (Homo sapiens (Human), UniProt P03952) | condition not met |
| Cc1cnn(Cc2ccc(Cn3cc(C(=O)NCc4c(C)cc(N)nc4C)cn3)cc2)c1 | human plasma kallikrein (Homo sapiens (Human), UniProt P03952) | condition met |
| COCCc1cccc(Cn2cc(C(=O)NCc3c(C)cc(N)nc3C)cn2)c1 | human plasma kallikrein (Homo sapiens (Human), UniProt P03952) | condition not met |
| Cc1cc(N)nc(C)c1CNC(=O)c1nc(Cc2ccccc2)no1 | human plasma kallikrein (Homo sapiens (Human), UniProt P03952) | condition not met |
| Cc1cccc(Cn2cc(C(=O)NCc3c(C)cc(N)nc3C)cn2)n1 | human plasma kallikrein (Homo sapiens (Human), UniProt P03952) | condition not met |
| Cc1cc(N)nc(C)c1CNC(=O)c1cnn(Cc2cccc(Cl)c2)c1 | human plasma kallikrein (Homo sapiens (Human), UniProt P03952) | condition not met |
| Cc1cc(N)nc(C)c1CNC(=O)c1cn(Cc2ccccc2)c2ccccc12 | human plasma kallikrein (Homo sapiens (Human), UniProt P03952) | condition not met |
| Cc1cc(N)nc(C)c1CNC(=O)c1cnn(Cc2ccccc2Cl)c1 | human plasma kallikrein (Homo sapiens (Human), UniProt P03952) | condition not met |
| Cc1cc(N)nc(C)c1CNC(=O)c1cnn(Cc2ccc(S(=O)(=O)N(C)C)cc2)c1 | human plasma kallikrein (Homo sapiens (Human), UniProt P03952) | condition not met |
| Cc1cc(N)nc(C)c1CNC(=O)c1cnn(Cc2cc3ccccc3o2)n1 | human plasma kallikrein (Homo sapiens (Human), UniProt P03952) | condition not met |
| Cc1cc(N)nc(C)c1CNC(=O)c1cc(C)n(Cc2ccccc2)c1C | human plasma kallikrein (Homo sapiens (Human), UniProt P03952) | condition not met |
| Cc1cc(N)nc(C)c1CNC(=O)c1cnn(Cc2csc(Cc3ccccc3)n2)c1 | human plasma kallikrein (Homo sapiens (Human), UniProt P03952) | condition met |
| Cc1cc(N)nc(C)c1CNC(=O)c1cnn(Cc2ccc(F)cc2F)c1 | human plasma kallikrein (Homo sapiens (Human), UniProt P03952) | condition not met |
| Cc1cc(N)nc(C)c1CNC(=O)c1ncn(Cc2ccc3ccccc3c2)n1 | human plasma kallikrein (Homo sapiens (Human), UniProt P03952) | condition met |
| Cc1cc(N)nc(C)c1CNC(=O)c1cnn(Cc2ccc3[nH]cnc3c2)c1 | human plasma kallikrein (Homo sapiens (Human), UniProt P03952) | condition not met |
| Cc1cc(N)nc(C)c1CNC(=O)c1cnn(Cc2ccc(Cl)cc2)c1 | human plasma kallikrein (Homo sapiens (Human), UniProt P03952) | condition not met |
| Cc1cc(N)nc(C)c1CNC(=O)c1cnn(Cc2ccncc2)c1 | human plasma kallikrein (Homo sapiens (Human), UniProt P03952) | condition not met |
| Cc1cc(N)nc(C)c1CNC(=O)c1c(C)c(C)n(S(=O)(=O)c2ccccc2)c1C | human plasma kallikrein (Homo sapiens (Human), UniProt P03952) | condition not met |
| Cc1cc(N)nc(C)c1CNC(=O)c1ncn(Cc2ccc(-c3ccccc3)cc2)n1 | human plasma kallikrein (Homo sapiens (Human), UniProt P03952) | condition met |
| Cc1cc(N)nc(C)c1CNC(=O)c1cc(S(=O)(=O)N2CCOCC2)c[nH]1 | human plasma kallikrein (Homo sapiens (Human), UniProt P03952) | condition not met |
| Cc1cc(N)nc(C)c1CNC(=O)c1cnn(Cc2ccc(C(=O)Nc3ccn(C)n3)cc2)c1 | human plasma kallikrein (Homo sapiens (Human), UniProt P03952) | condition not met |
| Cc1cc(N)nc(C)c1CNC(=O)c1cnn(Cc2cnc3ccccc3c2)c1 | human plasma kallikrein (Homo sapiens (Human), UniProt P03952) | condition met |
| Cc1cc(N)nc(C)c1CNC(=O)c1cnn(Cc2cccc(S(=O)(=O)N3CCOCC3)c2)c1 | human plasma kallikrein (Homo sapiens (Human), UniProt P03952) | condition not met |

---

Target: human plasma kallikrein (Homo sapiens (Human))
Conditions: human plasma kallikrein 25 pM, substrate 0.5 uM, 1 hour pre-incubation at room temperature, read at t=60 min
Each entry below carries its reported IC50.
endpoint: IC50 (µM)

| compound | observed value |
| --- | --- |
| Cc1nc(N)cc(Cl)c1CNC(=O)c1cnn(Cc2ccccc2)c1 [Example 144] | 42.4 |
| Cc1cc(N)nc(C)c1CNC(=O)c1cnn(Cc2cccc(F)c2)c1 [Example 84] | 0.498 |
| Cc1cc(N)nc(C)c1CNC(=O)c1cnn(Cc2ccc(CN3CCOCC3)cc2)c1 [Example 110] | 0.249 |
| Cc1cc(N)nc(C)c1CNC(=O)c1cn(Cc2ncccn2)nn1 [Example 178] | 67.3 |
| Cc1cc(N)nc(C)c1CNC(=O)c1cnn(Cc2cccnc2)c1 [Example 98] | 3.8 |
| Cc1cc(N)nc(C)c1CNC(=O)c1cnn(Cc2ccc(CN3C(=O)CCC3=O)cc2)c1 [Example 17] | 0.098 |
| Cc1cc(N)nc(C)c1CNC(=O)c1cc(C)n(C(C)c2ccccc2)c1C (stereo not drawn) [Example 51] | 7 |
| Cc1cc(N)nc(C)c1CNC(=O)c1cn(Cc2ccc3c(c2)c(C)c(C)n3C)nn1 [Example 166] | 0.0002 |
| Cc1nc(N)cc(Cl)c1CNC(=O)c1cnn(Cc2ccc3ccccc3c2)c1 [Example 172] | 0.06 |
| Cc1cc(N)nc(C)c1CNC(=O)c1ncn(Cc2ccccc2)n1 [Example 56] | 4.4 |
| Cc1nc(N)cc(OCc2ncco2)c1CNC(=O)c1cn(Cc2ccccc2)nn1 [Example 137] | 0.127 |
| Cc1cc(N)nc(C)c1CNC(=O)c1cnn(Cc2csc(Nc3ccccc3)n2)c1 [Example 25] | 0.109 |
| Cc1cc(N)nc(C)c1CNC(=O)c1cnn(Cc2sc(-c3ccccc3)nc2C)c1 [Example 26] | 0.019 |
| Cc1cc(N)nc(C)c1CNC(=O)c1ccn(S(=O)(=O)c2ccc(-c3ccccc3)cc2)c1 [Example 127] | 0.016 |
| Cc1cc(N)nc(C)c1CNC(=O)c1ccn(S(=O)(=O)c2ccccc2)c1C [Example 176] | 45 |
| Cc1cc(N)nc(C)c1CNC(=O)c1cn(Cc2cccc(Cn3ccnc3)c2)nn1 [Example 46] | 1.1 |
| Cc1cc(N)nc(C)c1CNC(=O)c1ccn(S(=O)(=O)c2ccc(Cl)s2)c1 [Example 128] | 0.301 |
| Cc1cc(N)nc(C)c1CNC(=O)c1cnn(Cc2cc(C(F)(F)F)c3cc(F)ccc3n2)c1 [Example 162] | 0.005 |

Cited source: patent US9290485B2
